The measurements presented in this section are drawn from the supplement of paper PMC10567573.

B1: PDS5B (parent)
chain: ITYPPGVKEISDKISKEEMVRRLK

variants of: B1; assay: protein stability index of a GFP-peptide fusion (GPS, HEK-293T) (PSI 1-6); higher = more stable; details: c terminus: a fixed tail appended;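 note: lentivirally expressed fusions sorted by FACS into six bins by GFP to DsRed ratio, PSI derived from sequencing read proportions per bin multiplied by bin number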
The threshold is inclusive: protein stability index of exactly 4 counts as class 1; values below receive class 0.

- biosequence: "ITYPPGVKEISFKISKEEMVRRLK"
  label_class: "class 0"
- biosequence: "ITYPPGVKEISDKISKEEMVSRLK"
  label_class: "class 1"
- biosequence: "ITYPPGVKEISDKIFKEEMVRRLK"
  label_class: "class 0"
- biosequence: "ITYPPGVKEISDKNSKEEMVRRLK"
  label_class: "class 0"
- biosequence: "ITYPPGVKEISDKISKKEMVRRLK"
  label_class: "class 0"
- biosequence: "ITYPPGVKEISDKISKEAMVRRLK"
  label_class: "class 1"
- biosequence: "ITYPPMVKEISDKISKEEMVRRLK"
  label_class: "class 0"
- biosequence: "IKYPPGVKEISDKISKEEMVRRLK"
  label_class: "class 0"
- biosequence: "ITYPPGVKEISDKISKEEMVHRLK"
  label_class: "class 0"
- biosequence: "ITYPPGVKEISDKISKNEMVRRLK"
  label_class: "class 0"
- biosequence: "ITTPPGVKEISDKISKEEMVRRLK"
  label_class: "class 0"
- biosequence: "INYPPGVKEISDKISKEEMVRRLK"
  label_class: "class 0"
- biosequence: "ITYPPGVKEISDKISKEEMIRRLK"
  label_class: "class 0"
- biosequence: "ITYPPIVKEISDKISKEEMVRRLK"
  label_class: "class 0"
- biosequence: "ITYPPGVKEISDKIEKEEMVRRLK"
  label_class: "class 1"
- biosequence: "ITYPPGVKEISDKISKEEMVPRLK"
  label_class: "class 1"
- biosequence: "ITYPPGVKEISDKRSKEEMVRRLK"
  label_class: "class 1"
- biosequence: "ITYPPGVKEISDKISKEEMVNRLK"
  label_class: "class 0"
- biosequence: "ITYPPGVKEISPKISKEEMVRRLK"
  label_class: "class 0"
- biosequence: "ITYPPGVKEISDKISKEEMARRLK"
  label_class: "class 0"
- biosequence: "ITYPPGVKEISDHISKEEMVRRLK"
  label_class: "class 0"
- biosequence: "ITYPPGAKEISDKISKEEMVRRLK"
  label_class: "class 1"
- biosequence: "ITYPPGVKEISDKISKEEMVRRIK"
  label_class: "class 1"
- biosequence: "ITYPPGVKEISDKESKEEMVRRLK"
  label_class: "class 1"
- biosequence: "ITYPPGVKHISDKISKEEMVRRLK"
  label_class: "class 0"
- biosequence: "ITYPGGVKEISDKISKEEMVRRLK"
  label_class: "class 0"
- biosequence: "ITYPPGVKEISDKCSKEEMVRRLK"
  label_class: "class 0"
- biosequence: "ITYPLGVKEISDKISKEEMVRRLK"
  label_class: "class 0"
- biosequence: "ITYPPGVKEISDKISKEEMVQRLK"
  label_class: "class 1"
- biosequence: "ITYPPGVKEISDKISKEEMVRRLC"
  label_class: "class 0"
- biosequence: "ITYPPGVKEISDKIIKEEMVRRLK"
  label_class: "class 0"
- biosequence: "ITYPPGVKEISDKISEEEMVRRLK"
  label_class: "class 0"
- biosequence: "ITYPPGVKEISDKIHKEEMVRRLK"
  label_class: "class 1"
- biosequence: "ITYPPGVKEIPDKISKEEMVRRLK"
  label_class: "class 1"
- biosequence: "ITYPPGVKEISDKIAKEEMVRRLK"
  label_class: "class 1"
- biosequence: "ITYPPGVKEISWKISKEEMVRRLK"
  label_class: "class 0"
- biosequence: "ITYPPGVKEISDKISKEEMVRRLG"
  label_class: "class 0"
- biosequence: "ITYPPGVKEISDKISKEEMVRYLK"
  label_class: "class 0"
- biosequence: "ITYAPGVKEISDKISKEEMVRRLK"
  label_class: "class 0"
- biosequence: "ITYPPGVKEISDKISKECMVRRLK"
  label_class: "class 0"
- biosequence: "ITYPPGVVEISDKISKEEMVRRLK"
  label_class: "class 1"
- biosequence: "ITYPPGVKEISDKISKFEMVRRLK"
  label_class: "class 0"
- biosequence: "IRYPPGVKEISDKISKEEMVRRLK"
  label_class: "class 0"
- biosequence: "ITYPPGVKEISDKISKEEHVRRLK"
  label_class: "class 1"
- biosequence: "ITYPPGVKEISDKISKYEMVRRLK"
  label_class: "class 0"
- biosequence: "ITYPPLVKEISDKISKEEMVRRLK"
  label_class: "class 0"
- biosequence: "ITYPPGVKEISDKISKEEGVRRLK"
  label_class: "class 1"
- biosequence: "ITYPPGVKEISDKISKAEMVRRLK"
  label_class: "class 0"
- biosequence: "ITYPPGVKEISDKISKEERVRRLK"
  label_class: "class 1"
- biosequence: "STYPPGVKEISDKISKEEMVRRLK"
  label_class: "class 1"
- biosequence: "ITYPPAVKEISDKISKEEMVRRLK"
  label_class: "class 1"
- biosequence: "ITYPPGVKEISDKMSKEEMVRRLK"
  label_class: "class 1"
- biosequence: "ITYPPGVKPISDKISKEEMVRRLK"
  label_class: "class 0"
- biosequence: "ITYPPGLKEISDKISKEEMVRRLK"
  label_class: "class 0"
- biosequence: "ITYPPGVKEISDKISKHEMVRRLK"
  label_class: "class 1"
- biosequence: "ITYPPGVKEISDKIWKEEMVRRLK"
  label_class: "class 0"
- biosequence: "ITYPPGYKEISDKISKEEMVRRLK"
  label_class: "class 0"
- biosequence: "ITYPPVVKEISDKISKEEMVRRLK"
  label_class: "class 0"
- biosequence: "ITYPPGVKEISDKISKEEMMRRLK"
  label_class: "class 0"
- biosequence: "ITYCPGVKEISDKISKEEMVRRLK"
  label_class: "class 0"
- biosequence: "ITYLPGVKEISDKISKEEMVRRLK"
  label_class: "class 0"
- biosequence: "ITRPPGVKEISDKISKEEMVRRLK"
  label_class: "class 1"
- biosequence: "ITYPSGVKEISDKISKEEMVRRLK"
  label_class: "class 1"
- biosequence: "ITYPPCVKEISDKISKEEMVRRLK"
  label_class: "class 0"
- biosequence: "ITAPPGVKEISDKISKEEMVRRLK"
  label_class: "class 1"
- biosequence: "ITYPPDVKEISDKISKEEMVRRLK"
  label_class: "class 1"
- biosequence: "ITYPPGVKEISDGISKEEMVRRLK"
  label_class: "class 0"
- biosequence: "ITYPPGVKEISDKISKEEMVRKLK"
  label_class: "class 0"
- biosequence: "ITYPPGVMEISDKISKEEMVRRLK"
  label_class: "class 0"
- biosequence: "ITYPPGVKEISDKISKEETVRRLK"
  label_class: "class 1"
- biosequence: "ITYDPGVKEISDKISKEEMVRRLK"
  label_class: "class 0"
- biosequence: "ITYPQGVKEISDKISKEEMVRRLK"
  label_class: "class 1"
- biosequence: "ITYNPGVKEISDKISKEEMVRRLK"
  label_class: "class 0"
- biosequence: "ITYPPGVKYISDKISKEEMVRRLK"
  label_class: "class 0"
- biosequence: "ITYPPGVKEISDKISKEEFVRRLK"
  label_class: "class 0"
- biosequence: "IEYPPGVKEISDKISKEEMVRRLK"
  label_class: "class 0"
- biosequence: "ITYPPGVKEISDKITKEEMVRRLK"
  label_class: "class 0"
